Exercise: for every item that follows, state its recorded melting point.

Input line: Name the reported melting point value associated with the molecule CCOc1ccn(C2OC(CO)C(O)C2O)c(=O)n1 (centres undefined)
Output line: 110 to 114 °C

Input line: // query: COc1ccc(C(=O)[C@H]2CC=CC[C@H]2C(=O)O)c2c1OC(C)(C)C2 (relative stereo)
Output line: 154 to 156 °C

Input line: Would you kindly repeat that for O=C(NCc1cccc2ccccc12)C1CCc2[nH]cnc2C1 (centres undefined) ?
Output line: 142 to 144 °C

Input line: How about CN1C(=O)[C@H](NC(=O)Nc2ccc(Cl)cc2Cl)N=C(c2ccccc2)c2ccccc21 ?
Output line: 215 to 216 °C

Input line: Same for CCOC(=O)CCc1cc(-c2ccc(Cl)cc2)n(-c2ccc(OC)cc2)n1
Output line: 80 to 81 °C

Input line: Repeat with Cc1ccc(C[C@@H]2CN(CCCN3C(=O)c4ccccc4C3=O)CCN2C(=O)c2cc(C(F)(F)F)cc(C(F)(F)F)c2)cc1C
Output line: 146 to 147 °C

Input line: Then COc1ccc(CCNS(=O)(=O)Cc2ccc3[nH]cc(CCN)c3c2)cc1 ?
Output line: 128 to 129 °C

Input line: Please give the result for N#Cc1cccc(CCn2ncc3c(=O)n(-c4ccccc4)c4ncccc4c32)c1 too.
Output line: 220 to 224 °C

Input line: Now consider O=C(O)CN(Cc1cccc(Cn2cc(C3c4ccccc4C=Cc4ccccc43)c(=S)[nH]c2=O)c1)C(=O)OCc1ccccc1 and answer again.
Output line: 120 °C

----------
For each of the compounds below, state its melting point.

Input line: Give its melting point value. Item: COc1ccc(C=CC(=O)NCCc2ccc(OC(C)(C)C(=O)O)cc2)cc1
Output line: 158 to 159 °C

Input line: Same question for O=C(NCCCCC1CCSS1)N1CCCC1 (centres undefined) please.
Output line: 91 to 93 °C

Input line: Continue with CN1CCN(CCc2nc3cc(Br)c4ccccc4c3n2C)CC1
Output line: 151 to 157 °C

Input line: Can you handle COC(=O)c1cc(NC(C)=O)c(F)c(-c2ccc(Cl)c(OC)c2F)n1 next?
Output line: 189 to 191 °C

Input line: Also CCn1ncc2c(NCC3CCCCC3)c3ccc([N+](=O)[O-])cc3nc21 , if possible.
Output line: 205 to 207 °C

Input line: Consider next the compound CCNC(=O)Nc1ccc(-c2sc3c(c2CN(C)CCOC)c(=O)n(-c2ccc(OCCOC)c(OCCOC)c2)c(=O)n3Cc2c(F)cccc2F)cc1 in the same way.
Output line: 206 to 208 °C

Input line: Can you check Cc1ccc(-c2cc(NCCN(C)C)c3ccccc3n2)s1 next?
Output line: 103 to 105 °C

Input line: Same question for O=C(Nc1ccc(Oc2ccccc2)cc1)Nc1sccc1C(=O)O please.
Output line: 195 to 198 °C

Input line: Would you mind doing CC(NC(CCc1ccccc1)C(=O)O)C(=O)OC(Cc1ccccc1)C(=O)O (centres undefined) as well?
Output line: 199 to 200 °C

----------
Provide the reported melting point of each item.

Input line: Find the recorded melting point belonging to Cc1c(Sc2ccccc2C(F)(F)F)c2cc(NS(C)(=O)=O)ccc2n1CC(=O)O and report it.
Output line: 207 °C

Input line: Same read-out for CN(C)CCCn1cc(C(=O)NCc2ccc(Cl)cc2)c(=O)c2cc(C#CCO)ccc21 ?
Output line: 172 to 175 °C

Input line: Try COC(=O)C1Cc2c([nH]c3ccccc23)C(c2cc(OC)ccc2OC)N1 (stereo unspecified) next.
Output line: 102 to 105 °C

Input line: Please answer likewise for O=C(O)CCC(=O)Nc1ccc(-c2ccncc2)cc1
Output line: 251 to 252 °C

Input line: # iterate: CC1=C(C#N)C(c2cccc3nc(-c4ccccc4)sc23)C(C(=O)OC(C)C)=C(C)N1 (stereo unspecified)
Output line: 218 °C

Input line: Continue with COC1=CC(=O)C2=C(CC=CC2)C1=O
Output line: 172 °C

Input line: Try this compound too: O=C(O)c1cc(=O)c2cccc(/C=C/c3ccc(OCCCCc4ccc(F)cc4)cc3)c2o1
Output line: 161 to 162 °C

Input line: Queued: FC(F)(F)c1[nH]c(-c2ccc(Cl)cc2)c(C(F)(F)F)c1Br
Output line: 71 to 75 °C

Input line: Another compound to check: CCCCC(C(=O)NO)S(=O)(=O)c1ccc(OC)cc1 (stereo unspecified)
Output line: 130 °C

Input line: Again, but for CC(C(=O)O)c1ccc(CC(Cl)(Cl)Cl)c(F)c1 (stereo unspecified)
Output line: 92 to 94 °C

Input line: Repeat for the following compound: Cc1cc(Sc2ccc3nc(COc4ccc(CC5SC(=O)NC5=O)cc4)n(C)c3n2)cc(C)c1NC(=O)Nc1ccc(C(F)(F)F)cc1 (stereo unspecified)
Output line: 193 to 195 °C

Input line: O=[N+]([O-])c1cc([N+](=O)[O-])c(Nc2cccc3c2OC(F)(F)O3)c(C(F)(F)F)c1 , same question.
Output line: 144 to 146 °C

Input line: Repeat with CCCc1nc(-c2ccc(OCCCn3ccnc3)cc2)no1
Output line: 57 to 58 °C

Input line: Same again, this time with O=P(Oc1cccc(OP(=O)(c2ccccc2)c2ccccc2)c1)(c1ccccc1)c1ccccc1
Output line: 130 °C

Input line: Subsequent entry: CC(=O)OC1CSC(Oc2cncc(-c3ccnc(Cl)c3)c2)C(OC(C)=O)C1OC(C)=O (stereo unspecified)
Output line: 105 to 108 °C

Input line: Repeat for the following compound: COc1cc2c(O)c(C(=O)O)cnc2cc1F
Output line: 275 °C

Input line: Check C=C(c1ccccc1)c1ccc(NC(=S)NC(=O)OC)c(NC(=S)NC(=O)OC)c1 too.
Output line: 182 to 184 °C

Input line: Also COc1cc(C2=NNC(=O)CC2)ccc1OCC1CO1 (stereo unspecified) , if possible.
Output line: 134 to 136 °C

Input line: And what about the compound CON=C(c1ccccc1)c1ccc2c(c1)C(C)(C)CCN2CCOc1ccc(CC(OC(C)=O)C(=O)O)cc1 (stereo unspecified) ?
Output line: 64 to 66 °C

Input line: Next compound: O=C(Nc1nccs1)c1c(C(F)(F)F)nc2c(C(F)(F)F)cccc2c1O
Output line: 258 °C

Input line: Now the compound CCCCn1cc(C(=O)O)c2ccc(Cl)cc21
Output line: 149 to 151 °C

Input line: And for CCOC(=O)CCC(C#N)(c1ccc(C(F)(F)F)cc1)N1CCOCC1 (stereo unspecified) ?
Output line: 96 to 97 °C

Input line: Try the compound N#CCC(=O)Nc1ccc(-c2ccc(C(=O)O)c(=O)[nH]2)cc1
Output line: > 280 °C

Input line: Okay, and Nc1ccc2ccc(-c3ccc(F)cc3)nc2n1 ?
Output line: 175 °C

Input line: How about Cc1c(Cc2cccnc2)sc2ccc(C(=O)O)cc12 ?
Output line: 230 to 232 °C

Input line: Can you check Nc1ccc(C#CC2CC2)c(F)c1 next?
Output line: 82 to 86 °C

Input line: Please give the result for CCOC(=O)c1cnoc1-c1cccc(OC)c1 too.
Output line: 85 to 87 °C

Input line: Param item: c1ccc(-n2c(Cc3ccccn3)nc3ccccc32)cc1
Output line: 106 to 108 °C

Input line: O=[N+]([O-])c1ccc(-n2ccnn2)c(F)c1 , same question.
Output line: 123 to 124 °C

Input line: Same thing, different compound: O=C(c1ccccc1)C(O)O
Output line: 85 to 85.5 °C

Input line: And C=CCN1C2CCC1C1CCC2N1C(c1ccc(C(=O)N2CCCCC2)cc1)c1cccc(OC)c1 (stereo unspecified) ?
Output line: 134 to 136 °C

Input line: Thanks! And CCN1CCCC1CNC(=O)c1cccc(NC(=O)N2CCc3cc(SC)c(C(F)(F)F)cc32)c1 (stereo unspecified) ?
Output line: 174 to 175 °C

Input line: Now try O=C(CC(NC(=O)COc1ccccc1)c1ccccc1)Nc1n[nH]c(=S)s1 (stereo unspecified) .
Output line: 225 to 226 °C

Input line: Same question for O=C1c2ccc(O)cc2C(=O)N1c1ccc(O)cc1 please.
Output line: 302 to 304 °C

Input line: Then this compound: N#CC1(N2CCCC2)CCC2(CC1)OCCO2
Output line: 65 to 67 °C

Input line: Again, but for O=C(OCc1cc(OCCCO)c(OCCCO)c(OCCCO)c1)c1ccccc1
Output line: 54 to 55 °C

Input line: Next: COc1cccc2c1CCc1c-2nc2ccccc2c1N
Output line: 126 to 129 °C

Input line: Record: CCNC(CC)c1ccc(Cl)c2nc3n(c12)CCCN3c1ccc(Cl)cc1Cl (stereo unspecified)
Output line: 124 to 127 °C

Input line: Likewise for C=C(C)C[C@H]1CC(C)=CCN1c1ccccc1 ?
Output line: 55 to 57 °C

Input line: Queued: COC(=O)C(C)(C)Oc1ccc(-c2ccc(CCNC(=O)c3cc(Cl)ccc3OC)cc2)cc1
Output line: < 20 °C

Input line: // repeat for Cc1cc(Cl)ccc1OCC(=O)N1CCSC1C(=O)O (stereo unspecified) and report
Output line: 147 to 148 °C
